Values compiled from patent US12540120B2.

Test system: Setaria faberi (SETFA)
experimentalProtocol: B2 Post-Emergence Efficacy—Test 2
Assay type: in vivo
cond: post-emergence application, 250 g/ha, evaluated after 13 days (Test 2)
assayMetric: percentage damage caused to the plant, five point scale, SETFA

Reported percentage damage caused to the plant, five point scale, SETFA of Cc1nn(C)c(=O)c(-c2c(F)ccc(Cl)c2CCc2ccc(NC(=O)OC(C)(C)C)c(F)c2)c1O [Compound A-1.042] : 5 (5=80-100%)

Reported percentage damage caused to the plant, five point scale, SETFA of Cc1nn(C)c(=O)c(-c2c(F)ccc(Cl)c2CCc2ccc(C(C)(C)C)cc2)c1O [Compound A-1.026] : 2 (2=20-39%)

Reported percentage damage caused to the plant, five point scale, SETFA of Cc1nn(C)c(=O)c(-c2c(F)ccc(Cl)c2CCc2ccc(C3CC3)cc2)c1OC(=O)C(C)C [Compound A-3.038] : 5 (5=80-100%)

Reported percentage damage caused to the plant, five point scale, SETFA of Cc1nn(C)c(=O)c(-c2c(F)ccc(Cl)c2/C=C/c2cccc(C#N)c2)c1O [Compound A-2.030] : 0

Reported percentage damage caused to the plant, five point scale, SETFA of Cc1nn(C)c(=O)c(-c2c(F)ccc(Cl)c2CCc2ccccc2C#N)c1OC(=O)C(C)C [Compound A-3.029] : 2 (2=20-39%)

Reported percentage damage caused to the plant, five point scale, SETFA of CNc1ccc(CCc2c(Cl)ccc(F)c2-c2c(O)c(C)nn(C)c2=O)cc1 [Compound A-1.034] : 5 (5=80-100%)

Reported percentage damage caused to the plant, five point scale, SETFA of Cc1nn(C)c(=O)c(-c2c(F)ccc(Cl)c2/C=C/c2cccc(C#N)c2)c1OC(=O)C(C)C [Compound A-4.030] : 0

Reported percentage damage caused to the plant, five point scale, SETFA of CC(=O)Nc1cc(CCc2c(Cl)ccc(F)c2-c2c(O)c(C)nn(C)c2=O)ccn1 [Compound A-1.044] : 5 (5=80-100%)

Reported percentage damage caused to the plant, five point scale, SETFA of Cc1nn(C)c(=O)c(-c2c(F)ccc(Cl)c2CCc2ccc(O)cc2)c1O [Compound A-1.037] : 5 (5=80-100%)

Reported percentage damage caused to the plant, five point scale, SETFA of Cc1nn(C)c(=O)c(-c2c(F)ccc(Cl)c2/C=C/c2ccc(C3CC3)cc2)c1OC(=O)C(C)C [Compound A-4.038] : 0

Reported percentage damage caused to the plant, five point scale, SETFA of CCN(C)C(=O)c1ccc(CCc2c(Cl)ccc(F)c2-c2c(O)c(C)nn(C)c2=O)cc1F [Compound A-1.028] : 5 (5=80-100%)

Reported percentage damage caused to the plant, five point scale, SETFA of Cc1nn(C)c(=O)c(-c2c(F)ccc(Cl)c2CCc2cccc(C#N)c2)c1OC(=O)C(C)C [Compound A-3.030] : 5 (5=80-100%)

Reported percentage damage caused to the plant, five point scale, SETFA of Cc1nn(C)c(=O)c(-c2c(F)ccc(Cl)c2/C=C/c2ccc(OC(C)(C)C)cc2)c1OC(=O)C(C)C [Compound A-4.035] : 0

Reported percentage damage caused to the plant, five point scale, SETFA of Cc1nn(C)c(=O)c(-c2c(F)ccc(Cl)c2CCc2cccc(C#N)c2)c1O [Compound A-1.030] : 4 (4=60-79%)

Reported percentage damage caused to the plant, five point scale, SETFA of Cc1nn(C)c(=O)c(-c2c(F)ccc(Cl)c2CCc2ccc(-c3ccccc3)cc2)c1O [Compound A-1.027] : 5 (5=80-100%)

Reported percentage damage caused to the plant, five point scale, SETFA of Cc1nn(C)c(=O)c(-c2c(F)ccc(Cl)c2/C=C/c2ccccc2C#N)c1OC(=O)C(C)C [Compound A-4.029] : 0

Reported percentage damage caused to the plant, five point scale, SETFA of Cc1nc(-c2ccc(CCc3c(Cl)ccc(F)c3-c3c(O)c(C)nn(C)c3=O)cc2)cs1 [Compound A-1.383] : 5 (5=80-100%)

Reported percentage damage caused to the plant, five point scale, SETFA of Cc1nn(C)c(=O)c(-c2c(F)ccc(Cl)c2CCc2ccc(S(=O)(=O)N(C)C)cc2)c1O [Compound A-1.025] : 5 (5=80-100%)
